Measured pIC50 by item
Target: protein-protein interaction between hSOS1 and hKRASG12C (Homo sapiens, UniProt Q07889)
Construct: GST-hSOS1, 564-1049aa expressed and purified in-house
Sequence (Q07889 564-1049): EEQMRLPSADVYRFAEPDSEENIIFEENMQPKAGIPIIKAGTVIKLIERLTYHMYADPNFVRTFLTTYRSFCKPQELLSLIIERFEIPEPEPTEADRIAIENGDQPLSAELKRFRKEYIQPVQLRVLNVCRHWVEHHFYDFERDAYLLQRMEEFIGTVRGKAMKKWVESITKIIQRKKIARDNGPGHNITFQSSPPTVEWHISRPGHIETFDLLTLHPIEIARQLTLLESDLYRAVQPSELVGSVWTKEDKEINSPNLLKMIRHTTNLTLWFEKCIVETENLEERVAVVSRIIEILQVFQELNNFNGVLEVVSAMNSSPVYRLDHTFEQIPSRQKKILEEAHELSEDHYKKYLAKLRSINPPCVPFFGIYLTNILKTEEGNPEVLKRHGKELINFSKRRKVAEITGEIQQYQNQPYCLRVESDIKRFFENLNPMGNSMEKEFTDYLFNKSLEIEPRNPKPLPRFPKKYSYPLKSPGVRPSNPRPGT
Experiment: KRAS-SOS1 interaction assay (HTRF)
Format: binding
Details: GST-hSOS1 564-1049aa, HIS-hKRASG12C, read-out: KRAS-SOS1 Interaction inhibition IC50
pIC50: −log10 of the molar value.
quantity-name: pIC50

compound="Cc1nc(NC(C)c2cccc(C(F)(F)C(C)(C)O)c2)c2cc3c(cc2n1)C(C)(C)C(=O)N3C (single isomer, unassigned)" result="8.00 to 9.00"
compound=Cc1nc(N[C@H](C)c2cccc(C(F)(F)C(C)(C)O)c2F)c2cc3c(cc2n1)C(C)(C)CN3C result="7.60 to 7.96"
compound="Cc1nc(N[C@H](C)c2cccc(C(F)(F)C(C)(C)O)c2F)c2cc3c(cc2n1)C(C)C(=O)N3C (mixture of isomers)" result="8.00 to 9.00"
compound=Cc1nc(N[C@H](C)c2cccc(C(F)(F)CO)c2F)c2cc3c(cc2n1)OCC(=O)N3C result="8.00 to 9.00"
compound="COC1(C)C(=O)N(C)c2cc3c(N[C@H](C)c4cccc(C(F)(F)C(C)(O)CN(C)C)c4F)nc(C)nc3cc21 (single isomer, unassigned)" result="8.00 to 9.00"
compound="COCC[C@@]1(OC)C(=O)N(C)c2cc3c(N[C@H](C)c4cccc(C(F)(F)C(C)(C)O)c4F)nc(C)nc3cc21 (single isomer, unassigned) [Compound 132b]" result="8.00 to 9.00"
compound="COC[C@](C)(O)C(F)(F)c1cccc([C@@H](C)Nc2nc(C)nc3cc4c(cc23)N(C)C(=O)C(C)(C)O4)c1F (racemic) [Compound 53a]" result="8.00 to 9.00"
compound=Cc1nc(N[C@H](C)c2cccc(C(F)(F)C(C)(C)O)c2F)c2cc3c(cc2n1)c(=O)n(C)c(=O)n3C result="8.00 to 9.00"
compound=Cc1nc(N[C@H](C)c2cccc(C(F)(F)C(C)(C)O)c2F)c2cc3c(cc2n1)n(C)c(=O)n3C(C)C result="8.00 to 9.00"
compound=Cc1nc(N[C@H](C)c2cccc(C(F)(F)C(C)(C)O)c2F)c2cc3c(c(F)c2n1)OCC(=O)N3C result="7.60 to 7.96"
compound="Cc1nc(N[C@H](C)c2cccc(C(F)(F)C(C)(C)O)c2F)c2cc3c(cc2n1)OC(C(C)C)C(=O)N3C (single isomer, unassigned) [Compound 32b]" result="8.00 to 9.00"
compound="COCC1(C)C(=O)N(C)c2cc3nc(C)nc(N[C@H](C)c4cccc(C(F)(F)C(C)(C)O)c4F)c3cc21 (single isomer, unassigned) [Compound 94a]" result="8.00 to 9.00"
compound=CCN1C(=O)COc2cc3nc(C)nc(N[C@H](C)c4cccc(C(F)(F)CO)c4F)c3cc21 result="8.00 to 9.00"
